Sourced from patent US20180362935A1

test system: ciPTEC-OAT1; assay: MTT viability assay in ciPTEC-OAT1; format: cell-based, human; details: ciPTEC-OAT1, 72 h exposure, serum free medium, mean ± SEM, n ≥ 3; read-out: Inhibitory potency on cell viability (MTT), 72 h
pIC50: −log10 of the molar value.
outcome-measure: pIC50

INSERT INTO results (compound, outcome_measure, measured_result) VALUES
  ('C[C@H](Cn1cnc2c(N)ncnc21)OCP(=O)(O)O [Tenofovir]', 'pIC50', 3.65);

* * *

tested on: ciPTEC-OAT1; assay: MTT viability assay in ciPTEC-OAT1; assay type: cell-based, human; details: read-out: Inhibitory potency on cell viability (MTT), 48 h; ciPTEC-OAT1, 48 h exposure, serum free medium, mean ± SEM, n ≥ 3
outcome-measure: IC50

INSERT INTO results (compound, outcome_measure, measured_result) VALUES
  ('C[C@H](Cn1cnc2c(N)ncnc21)OCP(=O)(O)O [Tenofovir]', 'IC50', '189 µM');

* * *

molecular target: OAT1 (Homo sapiens)
Sequence (Q4U2R8 1-550 isoform Q4U2R8-2): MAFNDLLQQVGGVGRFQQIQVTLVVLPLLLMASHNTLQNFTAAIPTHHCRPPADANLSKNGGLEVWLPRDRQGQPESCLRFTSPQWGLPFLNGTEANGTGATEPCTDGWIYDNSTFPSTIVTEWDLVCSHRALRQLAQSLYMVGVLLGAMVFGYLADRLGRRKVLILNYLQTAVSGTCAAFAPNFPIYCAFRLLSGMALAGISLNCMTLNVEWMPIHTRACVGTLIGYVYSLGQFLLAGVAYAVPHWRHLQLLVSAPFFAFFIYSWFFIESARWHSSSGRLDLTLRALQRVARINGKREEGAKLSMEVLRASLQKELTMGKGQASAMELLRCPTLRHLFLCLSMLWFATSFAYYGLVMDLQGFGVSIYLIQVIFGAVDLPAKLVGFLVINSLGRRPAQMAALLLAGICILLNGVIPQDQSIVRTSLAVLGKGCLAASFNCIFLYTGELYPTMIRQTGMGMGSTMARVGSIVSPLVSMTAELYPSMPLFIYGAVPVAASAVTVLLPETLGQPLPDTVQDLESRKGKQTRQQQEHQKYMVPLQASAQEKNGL
outcome-measure: Km

INSERT INTO results (smiles_record, outcome_measure, measured_result) VALUES
  ('O=C1OC2(c3ccc(O)cc3Oc3cc(O)ccc32)c2ccccc21', 'Km', '0.8 µM');

* * *

system: ciPTEC-OAT1; assay: MTT viability assay in ciPTEC-OAT1; format: cell-based, human; details: ciPTEC-OAT1, 24 h exposure, serum free medium, mean ± SEM, n ≥ 3; read-out: Inhibitory potency on cell viability (MTT), 24 h
outcome-measure: IC50 (µM)

INSERT INTO measurements (molecule, outcome_measure, measured_result) VALUES
  ('C[C@H](Cn1cnc2c(N)ncnc21)OCP(=O)(O)O [Tenofovir]', 'IC50', 114);

* * *

This section lists pIC50 readings for UniProt:Q4U2R8.
pIC50: −log10 of the molar value.
outcome-measure: pIC50

INSERT INTO assay_data (compound, measured_result) VALUES
  ('CN/C(=N/CCSCc1nc[nH]c1C)NC#N [Cimetidine]', 3.18),
  ('Nc1ccn(C[C@@H](CO)OCP(=O)(O)O)c(=O)n1 [Cidofovir]', 4.15),
  ('C[C@H](Cn1cnc2c(N)ncnc21)OCP(=O)(O)O [Tenofovir]', 4.38),
  ('Nc1ncnc2c1ncn2CCOCP(=O)(O)O [Adefovir]', 4.64);

* * *

This section lists pIC50 readings for OAT3 (Homo sapiens).
pIC50: −log10 of the molar value.
outcome-measure: pIC50

INSERT INTO results (smiles_record, measured_result) VALUES
  ('CN/C(=N/CCSCc1nc[nH]c1C)NC#N', 3.67),
  ('Nc1ccc(C(=O)NCC(=O)O)cc1', 3.82);
